# Measured Target: T1, Aβ(1-40) monomer (human)
# T1 construct: also called monomeric Aβ(1-40); Aβ(1-40) monomer, 0.1% NH4OH
# T1 sequence (peptide, as listed by the source): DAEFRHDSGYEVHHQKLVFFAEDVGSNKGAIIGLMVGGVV
# Assay Method Text: dot blot densitometry, antibody 0.2 µg/ml; column Aβ(1-40) monomer, 0.1% NaOH
Could you please report measured relation between recognition of Aβ(20-42) globulomer and the respective Aβ form for the items listed next?

[in] I have this binder here, monoclonal antibody 7E5 (antibody, V domains shown, Mouse monoclonal antibody from hybridoma; also called ML15-7E5.5E12; hybridoma ATCC PTA-7809) VH: EVKLVESGGGLVQPGGSRKLSCAASGFTFSDYEMVWVRQAPGEGLEWVAYISSGSRTIHYADTVKGRFTISRDNPKNTLFLQMSSLRSEDTAMYYCARTLLRLHFDYWGQGTILTVSS VL: DIVMSQSPSSLAVSVGEKVTMSCRSSQSLFYRSNQKNFLAWYQQKPGQSPKLLIYWASTRESGVPDRFTGSGSGTDFTLTISSVKAEDLAVYYCQQYYSYPWTFGGGTKLEIKR , and I need its recorded relation between recognition of Aβ(20-42) globulomer and the respective Aβ form.
[out] > 100000

[in] Again, but for monoclonal antibody 4B7 (antibody, V domains shown, Mouse monoclonal antibody from hybridoma; also called ML15-4B7.3A6; hybridoma ATCC PTA-7242) VH: EVKLVESGGGLVQPGGSRKLSCAASGFTFSDYEMVWVRQAPGEGLEWVAYISSGSRTIHYADTVKGRFTISRDNPKNTLFLQMSSLRSEDTAMYYCARTLLRLHFDYWGQGTILTVSS VL: DIVMSQSPSSLAVSVGEKVTMSCRSSQSLFYRSNQKNFLAWYQQKPGQSPKLLIYWASTRESGVPDRFTGSGSGTDFTLTISSVKAEDLAVYYCQQYYSYPWTFGGGTKLEIKR
[out] > 100000

[in] Also monoclonal antibody 2F2 (antibody, V domains shown, Mouse monoclonal antibody from hybridoma; also called ML15-2F2.3E12; hybridoma ATCC PTA-7408) VH: QVQLKQSGAELVRPGTSVKMSCKASGYTFTTFYIHWVKQRPGQGLEWIGMIGPGSGNTYYNEMFKDKATLTVDTSSSTAYMQLSSLTSEDSAVYFCARAKSARAAWFAYWGQGTLVTVSA VL: DVLMTQTPLSLPVSLGDQASISCRSSQSVVQSNGNTYLEWYLQKPGQSPKLLIYKVSNRFSGVPDRFSGSGSGTDFTLKISRVEAEDLGVYYCFQGSHVPPTFGGGTKLEIKR , if possible.
[out] > 10000
